Where these numbers come from: patent US4714705A

- Test system: adult mongrel dogs
- assay_details: Renal vasodilating activity in anesthetized dogs
- Assay type: in vivo, dog (adult mongrel)
- particulars: Canis lupus familiaris; 6.2 mg/kg intravenous, relative to controls; read-out: RBF, renal blood flow
Mark each entry TRUE if its change in vivo at 6.2 mg/kg sits below 50%, and FALSE for all others.

Q: change in vivo at 6.2 mg/kg strictly < 50% for this molecule? COc1ccc(NC(=O)Nc2c(O)nc(C)c3cc(OC)c(OC)cc23)cc1 [BP]
Ans: FALSE

Q: Take the molecule CCCCNC(=O)Nc1c(O)nc(C)c2cc(OC)c(OC)cc12 [Compound BR, Hemihydrate] and say whether its change in vivo at 6.2 mg/kg is less than 50%.
Ans: FALSE

Q: I'd appreciate it if you could check whether CCCCOC(=O)Nc1c(O)nc(C)c2cc(OC)c(OC)cc12 [Compound BBP] has change in vivo at 6.2 mg/kg smaller than 50%.
Ans: FALSE

Q: Hello, I'm reviewing records and need to know if change in vivo at 6.2 mg/kg of CCOc1cc2c(C)nc(O)c(NC(N)=O)c2cc1OC [BS] is below 50%. Could you check?
Ans: TRUE

Q: Lab note: change in vivo at 6.2 mg/kg threshold 50%. Does this molecule come in strictly under it? CCOc1cc2c(C)nc(O)c(NC(=O)Nc3ccc(C(F)(F)F)cc3)c2cc1OC [BV]
Ans: TRUE

Q: Hello, is change in vivo at 6.2 mg/kg of the following molecule strictly smaller than 50%? COc1cc2c(C)nc(O)c(NC(=O)NC(C)(C)C)c2cc1OC [BAU]
Ans: TRUE

Q: Lab note: confirm whether the reported change in vivo at 6.2 mg/kg for this molecule is below 50%, equality not counting. molecule: CCOc1cc2c(NC(=O)Nc3ccc(SC)cc3)c(O)nc(C)c2cc1OC [BBA]
Ans: FALSE
